The values you see were collected from the supplement of paper PMC6555819.

Tested on: RXRa DBDmut IVT, anti-RXR (DBD mutation: RXRa K156A/R161A, NR concentration 90 nM)
Experiment: PBM binding z-score (relative to random genomic background probes); higher = stronger binding; sequences stand for … in GC…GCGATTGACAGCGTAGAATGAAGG
Response field class: enum, chosen by comparing PBM binding z-score against small value = under -0.09, mid value = from -0.09 up to 2, large value = 2 and over

[
  {
    "item_sequence": "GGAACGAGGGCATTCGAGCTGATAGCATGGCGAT",
    "discrete_label": "large value"
  },
  {
    "item_sequence": "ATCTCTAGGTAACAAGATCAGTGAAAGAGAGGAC",
    "discrete_label": "small value"
  },
  {
    "item_sequence": "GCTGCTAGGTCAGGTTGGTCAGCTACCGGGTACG",
    "discrete_label": "mid value"
  },
  {
    "item_sequence": "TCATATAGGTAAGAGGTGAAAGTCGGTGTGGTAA",
    "discrete_label": "mid value"
  },
  {
    "item_sequence": "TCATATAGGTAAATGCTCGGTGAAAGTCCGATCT",
    "discrete_label": "mid value"
  },
  {
    "item_sequence": "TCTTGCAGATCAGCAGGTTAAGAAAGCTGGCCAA",
    "discrete_label": "small value"
  },
  {
    "item_sequence": "AGTCAAAATTCATCTAGGTAACGTAAGATATGCT",
    "discrete_label": "mid value"
  },
  {
    "item_sequence": "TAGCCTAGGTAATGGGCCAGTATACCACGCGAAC",
    "discrete_label": "small value"
  },
  {
    "item_sequence": "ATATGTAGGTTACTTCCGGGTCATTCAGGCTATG",
    "discrete_label": "mid value"
  },
  {
    "item_sequence": "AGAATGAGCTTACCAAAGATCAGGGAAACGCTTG",
    "discrete_label": "small value"
  },
  {
    "item_sequence": "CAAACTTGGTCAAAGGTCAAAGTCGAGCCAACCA",
    "discrete_label": "mid value"
  },
  {
    "item_sequence": "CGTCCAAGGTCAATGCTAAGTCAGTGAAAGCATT",
    "discrete_label": "large value"
  }
]
